Numbers sourced from the supplement of paper PMC12764529.

run.description: folding stability dG unfold from trypsin proteolysis; higher = more stable
Assign Fulfilled to entries whose folding stability dG unfold meets or exceeds 1 kcal/mol; assign Not fulfilled to the rest.

record.sequence	group
SSSPSGLSVTSSTVTKVETDPGPGNVTTVTVTTLNNSVLIIPLPGKPLVIPTNTTVETTYTVPPDDPSPASA [r9_531_JUSTAS]	Fulfilled
SAGGSAPGKKTIKIEIIFPFPEEQAKEFADYIAKGIADETGHDPENIDIKVEVHVFDPANNEPRPFSAGGSA [r15_918_TrROS]	Not fulfilled
SAGGSAGGWPLMVEYTPPGDGKTQTYPIPIKGPLSEIKDQIKENMPPGFREVEISPANIEKILKSAGGSAGG [r6_889_TrROS]	Not fulfilled
SAGMKPGEVLTVEDIPPGALLRNPKGESLGPVVEVEVRALEDSVEAVVTFPDGSKATVTFPADDIVLDPSAG [r5_850_TrMRF]	Fulfilled
SAGGMTLDQLKHALRHKKMQIHEPNPNGWYVTFQNPDGKPPTFPVKSDDELRDILRDAPGFEVEVQPVSAGG [r13_600_TrROS]	Not fulfilled
SAGGAEQAREILKEWGFEISEVDPKKKTVQVTPPESGMPISIDVDEPGQIKIKIRMNGKPRTFEIPPSAGGS [r16_197_TrROS]	Not fulfilled

----------
run.description: folding stability dG unfold from chymotrypsin proteolysis; higher = more stable

record.sequence	folding stability dG unfold, kcal/mol
SAGGSAGGMKYTTTTETSVVEVRTDPKTGTTTRLERVTVTTVDSSGNVLSTTETLEERVDPVPASAGGSAGG [r6_181_JUSTAS]	2.16
SAGGMPLVELEIVLPKEELEKLEEALRKLGYKVVKIEVVEYDPENDLVRVRIVLEKPMTLEELKKALKSAGG [r13_725_TrROS_Hall]	4.74
SVTVDEIAEWFANSFQQHGMKDVKVDVTVEPDPKNGRVRVDVQIRMTYPNPDGEKHRFEMTIPVEIPPNDSA [r9_440_TrROS]	1.93
SAGGSAGGSAGGSKEIKVEVEEKDGKLTVTVTFPDGSKVEIEGMSAEEVEKLVKELAKKSAGGSAGGSAGGS [r4_383_TrROS_Hall]	2.36
SMKPGEVKELTLKLTIPVKPGEITVTLVLKLEDGRYVVVESRATVKEDGTIEIEVKIRVYDPKTNEWKELSA [r9_349_TrROS_Hall]	3.28
SAGKKIDPEALAKRILKEFGLPEDAEVEVEEIENTYIARFPEATALFTIEDDEVTVFLAPARPEPELAGSAG [r5_190_TrMRF]	0.598
SAGGSAGGEEEYYEIEIVLPKEKAEEILEELKKKLPEGWEIVSVEVVEVDEDGYVRLRIVVKRTSAGGSAGG [r6_340_TrROS_Hall]	4.21

----------
Property: folding stability dG unfold; scope: individual sequences
run.description: folding stability dG unfold (combined trypsin and chymotrypsin); higher = more stable

record.sequence	folding stability dG unfold
SAGGSAGGSAGGGYIEIDSVHLHPDGTVTRTRAVLEVDENGNVRVLSAETETVPLDDILGSAGGSAGGSAGG [r7_521_TrMRF]	2.38 kcal/mol
SAGAVELPPGVAAVERDPETGVVTATYPDGTVTRYTVSTEWDPTVGRTRPRVTVEVWSPDSRISTRDLPSAG [r5_109_JUSTAS]	0.527 kcal/mol
SAGGYDFDPRGEFPFPNGVKVEVWEMTWPDGNPMTMIEIEATIPPPPKPPMSPEDAKENNKDMAKNNSAGGS [r16_8_TrROS]	0.211 kcal/mol
SAGGSASVLEEAIEEAKKLPPGSVVPLTVTVPTDGEPVVYEILITVHPGENTIEVEKKRKFSPERLSAGGSA [r15_724_JUSTAS]	0.439 kcal/mol
SAMKYTVKLPPGAEPIQPEELAALPYVEVVEVEISDGEDGTRTLTITVSPDVPEENVEKLKEYIEKKLKSAG [r14_421_JUSTAS]	3.12 kcal/mol
SAGGKELILKLKIEVNGKTLTIEVKVSPEELKKLLDELKKLGIKEIEIESIEFDKETNEIKVKVKVKSAGGS [r8_219_TrROS_Hall]	3.77 kcal/mol
SAGGSAGGSPPPITIFTAYKDPEDGPYWMKRRKINPDNGNIEEEWYPADDLADHGLPPGDIFISAGGSAGGS [r12_123_TrROS]	0.203 kcal/mol

----------
run.description: folding stability dG unfold from chymotrypsin proteolysis; higher = more stable
readout.label: folding stability dG unfold (kcal/mol)

record.sequence	measured.value
SAGGSAIDPRLLKLPKVKVEILSVEPVTGEDDKPFFVAKVKTDLEPGFYAYIILDPETGKIVKVFDSAGGSA [r15_66_TrMRF]	1.57
SAGGSAGGSAGKPEVEVETRLIKIDEEKGYYLRVTRVRVKNEDGSEFEFLSIEIIPKEDLSAGGSAGGSAGG [r11_51_TrROS_Hall]	3.91
SAGGSAIENQFLRITMYHGNKPHTWTFPIKKVDIDPEDGNIEVYFPPEFRELFGGPMRITDIEFPPSAGGSA [r15_710_TrROS]	1.63
MDDVVRVVLPVRVRIRDPVAPDRPEREVEILLERDVPLDEESLEELLEEAERAAEELARALGGEEAEVEPVS [r1_300_TrMRF]	1.54
SAGGSAGGSKKVKIIEIDLKDMSPEEILELIKKEKVDAIIIKSDTPEAKRLAEKLKEAGFKVISAGGSAGGS [r12_610_TrROS_Hall]	2.36
MEVKIKVEIVKVEEVEVKKKKDGKEEKFIRIEIKIEVEAKPGLSEEEIKKLAEELAKKLKELGLEVEVKKES [r1_305_TrROS_Hall]	2.15
SAGGSAGGSKEKKTVILRIKIYVKNENGELIEEIEIPLKDLTLEELKELAKKLNVKVEIELLPSAGGSAGGS [r12_398_TrROS_Hall]	3.5
SAGGSAGGSAGMKELEITIIDKKTGKPLKVKVTLVEVDGKLYLVIEVYKNGKPLETYVLPSAGGSAGGSAGG [r11_631_TrROS_Hall]	3.2
SAGMVIPILLKPEPERPEEVEKKAIEFANKLKPLNLPNVKIKVYRAPYVDPETGKTTVLYLVLIEVEPPSAG [r5_49_TrMRF]	2.79
SAGAMVTHTITVKIDPSELDKLEEILEKIKNSGPVKAIEPVSFEPGTGVYTVKVTADPATIKLVEEALKSAG [r5_193_JUSTAS]	4.14
SAGGSAGGSAGGSTITLRIEGLSKEEIEELARKLGAKVVSFDEKNKTVTIELPPGAKLLSAGGSAGGSAGGS [r4_3_TrROS_Hall]	2.19
SAGGSAGGSAAPTNPVEITLKRPDGTPVKATITFYPDGVKVTVEDGDTTTTSWLSPEEITLSAGGSAGGSAG [r3_373_JUSTAS]	1.72
SAGGSAGGSAGGKEEEARKLAEELAKELGLEIVEVKVERTEKEVKVTIRIKKDGKEIEFSAGGSAGGSAGGS [r10_161_TrROS_Hall]	1.36
SAGGMVTITVSIEEGKGYAVITITIDDETLTIKIPIPNMTEEDIKAKAEEIAKELAEKYGIEEIKLESAGGS [r16_249_JUSTAS]	3.37

----------
run.description: folding stability dG unfold from chymotrypsin proteolysis; higher = more stable
We use 0.9 kcal/mol as the dividing line for folding stability dG unfold: on or above the line is yes, below is no.

record.sequence	group
SAGGMPVTVEITVDLVLDPRYRPRPVYPPGETWREPERRVLPVTFTATFGDPEDAERAAVELLRALGVSAGG [r13_35_TrMRF]	yes
SAGGSAGGSAGDGMIEVKVEFERLFFDENGNVTKKEKVDEIIKVPPVTIDTSTGKLTPLPSAGGSAGGSAGG [r17_413_JUSTAS]	no
SAGGRVRLEEVEILPPLEDPEDNPDRPLLLLRVRARVEYDTPEGPREEERELVLVVSPERLEEALEALSAGG [r13_149_TrMRF]	yes
SAEKKTVRVVLEITLPPGLKPGDTITVKIEVDGKVYEAKILRVEEVPPGQTVRIVLELPAEDVKITIEPSAG [r14_554_TrROS_Hall]	yes
SAGGSAGGSAGGLKDALENGYVMIDFEIYNPPNGEPIGEITIMVKVPKPEPDEDGNWQLVSAGGSAGGSAGG [r7_959_TrROS]	yes
SAGGMPLDSPEVQRRLAALKEALAKAEALREAGLEVKVVSIEFDPETREVTIEVEVRPAPPPPPEEPSAGGS [r8_277_TrROS_Hall]	yes
SAGGSAGGSAGMKTSVTTPVTLPDGTPAVVTKYDGEVEIIDTGDGTSKVVPLSEVPPKLLSAGGSAGGSAGG [r11_155_JUSTAS]	no
SAGGMITATFTIDLGAGPVTFTFDITDIETALEKIKEYLKSQGIDAKLVSVSVDPANGTVPMKLSVPPSAGG [r13_567_JUSTAS]	yes
SAEPITITWPNGMQIPLYKDDDGEIEIKIQMYDPKDGKPVGEQEQRIDPDDNTIEFRFPNGWPFSITIPDSA [r9_56_TrROS]	no
SMSRPVEVEFELPLEGEGPVRLRATLVVDPESGVVEIPVRARFPEREEDVDLPPELLERLARRVLEELGGSA [r9_1136_TrMRF]	yes
SAGAMPPVVEVAPVEGEGLLRVTVPVPTSDVVRVTVDLGDRRLEYTLPRDASLEVSTADAEVRVAVELVSAG [r14_96_JUSTAS]	no
SAGGSAGGSAGGKEKKELYVVIKVDKNMTPEEIAEKLKKEFNVDKVEVEVREDGYLVVKVSAGGSAGGSAGG [r7_273_TrROS_Hall]	yes
SAGGSAGGSAVITLKPGETITITATITNADGSTVTITEVVRLPDGRLVVRVTNADGETYEFVLSAGGSAGGS [r12_31_TrROS_Hall]	yes
SKLKIEEIEINPNMPYTISVKLPDGFYISIQYDPGKPDQMKMNIFPPDGKKREHTIPANEPIRINFEIEPSA [r9_875_TrROS]	yes
SAGGPKPGEKWIARTKEGLVPITLEGDKVTITDALTGKKTVIPIPGASLEEIKELLLSEPDYEVYPESAGGS [r16_583_JUSTAS]	no
SAGGELVLLSESESVFTSPDGSRTVVRTLLTERPGDLLVEITTTTTIEPESGAVTTTTTTRVLPRRESAGGS [r8_264_JUSTAS]	yes
SAGGKPLTVEDAKELAESLAKPLKEELGLGNVKILAAPVEVGGEEGKPAEVRIGFLFDLSEDGEFVGSAGGS [r16_751_TrMRF]	no
VDLGIRTESVGGRRYRVLIRRPGTGEPRVLEVEGTLEEARERALREIREEYPDLPVRSINPVPVPAPPWLES [r1_80_TrMRF]	no
SAGGMVRITRDEDGILRVELFVEGTPEEAEEEAARLVRLLEELGFEEVRVEREPFGDGVVVTIEAKASAGGS [r8_113_TrMRF]	yes
SAGKTVTKTKTEYEYKDGKLEKKKVKTETIEPKPKIEVKEVKITLKDGSEVTAKIVSIDPKTKKVVIELSAG [r5_735_TrROS_Hall]	no
SALRPDIPFDAVEKVVIPARHPLLGGVVEAGVYRLKDSDAVLVVVTFPDGSKLVFLVRPDDVLDVLDAISAG [r14_240_TrMRF]	yes
SAGMELELELEFRLEDGLEVRIRVKVRFDPETGELVIEEVRIEVRPLPPPPPLVLTDEELEALGLEPEESAG [r5_393_TrROS_Hall]	yes
SAGGSAGGSAGKIELTNIQVWPGPNGRPWISMTISFPDGPVTIWIPFDNPDNIEIEIKPGSAGGSAGGSAGG [r17_64_TrROS]	yes
SAGGSAGGSKKKYTVEELLKKLKPGDIALVKINGKWREVSVEELKKLPPGAEVEVEVFKLKPPSAGGSAGGS [r12_501_TrROS_Hall]	yes
SAGGKVVVVPFPGPVTPETVAALAAKFIEEGLYDVPLVVVSEVEGRRPDGRPGRRRFGFVYVAKAPKSAGGS [r16_44_TrMRF]	yes
SAGGNIPPGETWKIKFPGKPIEIQMQQINGKPMYRLRDKNNKPHGTMTPDEADEFLDKLPPNWEIERYSAGG [r13_657_TrROS]	no
SAGGSISIPVYSPEDVIEAIEFIERYLREKGFPENEEATRIIVERLEDGRYRVIIEYPTRTIIIDDSAGGSA [r2_120_TrMRF]	yes
